Reference source for all entries: the supplement of paper PMC10981050

test system: OCI-AML2; experiment: cell viability relative to vehicle control; higher = less cytotoxic; settings: 10 µM; SRSF2 genotype: P95H/wt;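 also: after 48 h exposure read by CellTiter-Glo luminescence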
Where a name gives a salt, the structure may show the parent alone.
In plain terms, low cell viability, meaning strictly below 90%, gives 1 (yes), and everything else gives 0 (no).

Solved cases below.
1) Cc1ncc(CO)c(CO)c1O [Pyridoxine] | 0 (no)
2) O=C1Cc2c([nH]c3ccc(Br)cc23)-c2ncccc2N1 | 0 (no)
3) CCN(CC)CC(=O)Oc1ccc(NC(C)=O)cc1 [Propacetamol hydrochloride] | 1 (yes)
4) CCN(CC)CCNC(=O)c1c(C)[nH]c(/C=C2\C(=O)Nc3ccc(F)cc32)c1C [Sunitinib Malate] | 1 (yes)
5) O=C(/C=C/c1cncc(F)c1)c1c(-c2ccccc2)c2cc(Cl)ccc2[nH]c1=O | 1 (yes)

Okay, next one:
Q: Please indicate whether the reported cell viability of O=C1CN2Cc3c(ccc(Cl)c3Cl)N=C2N1 [Anagrelide hydrochloride] is strictly below 90%.
Ans: 0 (no)

---

system: MARIMO; assay: cell viability relative to vehicle control; higher = less cytotoxic; settings: 10 µM; SRSF2 genotype: SRSF2 wt/wt
Where a name gives a salt, the structure may show the parent alone.
property_name: cell viability (%)
Just the number in %, nothing appended.

1) CCn1cc(C(=O)O)c(=O)c2c(N)c(F)c(NC3CCCCC3)cc21 | 125
2) CC(C)Cc1ccc(C(C)C(=O)O)cc1 (configuration not stated) [Ibuprofen (Advil)] | 100
3) CC(C)C(=O)Nc1ccc([N+](=O)[O-])c(C(F)(F)F)c1 [Flutamide (Eulexin)] | 92.3

Q: Dear colleague, please send me the reported cell viability for Nc1[nH]cnc2ncnc1-2 [Adenine hydrochloride] when you can.
Ans: 111

Q: Dear colleague, please send me the reported cell viability for CCc1cc(/C(C)=N/OCc2ccc(C3CCCCC3)c(C(F)(F)F)c2)ccc1CN1CC(C(=O)O)C1 [BAF312 (Siponimod)] when you can.
Ans: 67.2

---

test system: OCI-AML2; assay: cell viability relative to vehicle control; higher = less cytotoxic; conditions: 10 µM; SRSF2 genotype: wt/wt
property_name: cell viability (%)
Just the number in %, nothing appended.

See these solved cases before continuing.
1. O=C(CCCCc1ccc2c(c1)OCO2)N1CCCCC1 [Tetrahydropiperine] | 88.3
2. CC[C@H](C)n1cc(C)c2c(C(=O)NCc3c(C)cc(C)[nH]c3=O)cc(-c3ccc(N4CCNCC4)nc3)cc21 | 75.4

Q: Dear colleague, please send me the reported cell viability for `CCCCCCCCCCCCCC(=S)NCCCC[C@H](NC(=O)OCc1ccccc1)C(=O)Nc1ccccc1` when you can.
Ans: 86.3

Q: Dear colleague, please send me the reported cell viability for COc1c(N2CCNC(C)C2)c(F)cc2c(=O)c(C(=O)O)cn(C3CC3)c12 (stereo unspecified) when you can.
Ans: 100

Q: Dear colleague, please send me the reported cell viability for `Nc1nc(F)nc2c1ncn2[C@@H]1O[C@H](CO)[C@@H](O)[C@@H]1O` when you can.
Ans: 5.52

Q: Dear colleague, please send me the reported cell viability for CC1=C(C(=O)OCCN(Cc2ccccc2)c2ccccc2)C(c2cccc([N+](=O)[O-])c2)C(P2(=O)OCC(C)(C)CO2)=C(C)N1 (stereo unspecified) when you can.
Ans: 82.3

Q: Dear colleague, please send me the reported cell viability for CC1CNC(=O)NC1=O (stereo unspecified) [Dihydrothymine] when you can.
Ans: 105

---

system: MARIMO; assay: cell viability relative to vehicle control; higher = less cytotoxic; conditions: 10 µM; SRSF2 genotype: SRSF2 P95H/wt
Where a name gives a salt, the structure may show the parent alone.
property_name: cell viability (%)
Just the number in %, nothing appended.

See these solved cases before continuing.
1. OC[C@H]1O[C@@H](OCCc2ccc(O)cc2)[C@H](O)[C@@H](O)[C@@H]1O [Salidroside (Rhodioloside)] | 106
2. OCC1(O)COc2cc(O)ccc2-c2cc(O)c(O)cc2C1 (stereo unspecified) | 100
3. COc1cc(NS(=O)(=O)c2ccc(N)cc2)nc(OC)n1 [SulfadiMethoxine sodium] | 100
4. CC(=C(CCOC(=O)C(C)C)SSC(CCOC(=O)C(C)C)=C(C)N(C=O)Cc1cnc(C)nc1N)N(C=O)Cc1cnc(C)nc1N (stereo in doubt) | 84.7

Q: Dear colleague, please send me the reported cell viability for C[C@]12CC[C@@H]3c4ccc(OC(=O)c5ccccc5)cc4CC[C@H]3[C@@H]1CC[C@@H]2O [Estradiol Benzoate] when you can.
Ans: 54.6

Q: Dear colleague, please send me the reported cell viability for `CO[C@@H]1[C@@H](O[C@@H]2O[C@H](C)[C@@H](O[C@H]3C[C@@](C)(O)[C@@H](O)[C@H](C)O3)[C@H](N(C)C)[C@H]2O)[C@@H](CC=O)C[C@@H](C)[C@@H](O[C@H]2CC[C@H](N(C)C)[C@@H](C)O2)/C=C/C=C/C[C@@H](C)OC(=O)C[C@H]1OC(C)=O` when you can.
Ans: 91.4

Q: Dear colleague, please send me the reported cell viability for COC(=O)[C@H](CC(C)C)NC(=O)c1ccc(NC[C@@H](N)CS)cc1-c1cccc2ccccc12 [GGTI 298 TFA salt] when you can.
Ans: 55

Q: Dear colleague, please send me the reported cell viability for `Cc1[nH]c2ccccc2c1C1=C(NCCc2ccc(F)cc2)C(=O)N(C)C1=O` when you can.
Ans: 94.9

Q: Dear colleague, please send me the reported cell viability for `Cn1c(=O)c(F)c(Nc2ccc(I)cc2F)c2c(=O)n(C[C@@H](O)CO)cnc21` when you can.
Ans: 43.7

Q: Dear colleague, please send me the reported cell viability for `OC(Cn1cncn1)(Cn1cncn1)c1ccc(F)cc1F` when you can.
Ans: 98

---

test system: MOLM14; assay: cell viability relative to vehicle control; higher = less cytotoxic; settings: 10 µM; SRSF2 genotype: SRSF2 P95H/wt
Listing: cell viability of selected compounds

1) Nc1nc(-c2nn(Cc3ccccc3F)c3ncccc23)ncc1C1CC1 | 104%

Q: Dear colleague, please send me the reported cell viability for Oc1cc(O)c2c(c1)OC(c1ccc(O)c(O)c1)C(O)C2 (single isomer, unassigned; (+)) [(+)-Catechin hydrate] when you can.
Ans: 104%

Q: Dear colleague, please send me the reported cell viability for `Cn1cc(-c2ccc3nnc(Sc4ccc5ncccc5c4)n3n2)cn1` when you can.
Ans: 98%

---

tested on: OCI-AML2; test: cell viability relative to vehicle control; higher = less cytotoxic; conditions: 10 µM; SRSF2 genotype: P95H/wt
property_name: cell viability

See these solved cases before continuing.
1) O=C(C[S+]([O-])Cc1ccco1)NC/C=C\COc1cc(CN2CCCCC2)ccn1 (stereo unspecified) [Lafutidine] | 105%
2) C=CC(=O)N1CCN(CCCn2c(=O)c(-c3c(Cl)c(OC)cc(OC)c3Cl)cc3cnc(NC)nc32)CC1 | 65.2%
3) NCCc1c[nH]cn1 [Histamine 2HCl] | 110%

Q: Dear colleague, please send me the reported cell viability for `COc1cc(N2CCC(N)CC2)ccc1Nc1ncc(Cl)c(-c2c[nH]c3ccccc23)n1` when you can.
Ans: 6%

Q: Dear colleague, please send me the reported cell viability for C[C@H]1O[C@@H](O[C@H]2CC[C@@]3(C)[C@@H](CC[C@]4(C)[C@@H]3C=C[C@]35OC[C@@]6(CCC(C)(C)C[C@H]63)[C@@H](O)C[C@]54C)[C@]2(C)CO)[C@H](O)[C@@H](O[C@@H]2O[C@H](CO)[C@@H](O)[C@H](O)[C@H]2O)[C@H]1O [Saikosaponin A] when you can.
Ans: 42.2%

Q: Dear colleague, please send me the reported cell viability for `CC(C)C[C@H](NC(=O)[C@H]1O[C@@H]1C(=O)O)C(=O)NCCCCN=C(N)N` when you can.
Ans: 108%

---

tested on: K562; assay: cell viability relative to vehicle control; higher = less cytotoxic; conditions: 10 µM; SRSF2 genotype: SRSF2 wt/wt
In plain terms, low cell viability, meaning strictly below 90%, gives class 1, and everything else gives class 0.

1. O=C(NOCC1CC1)c1ccc(F)c(F)c1Nc1ccc(I)cc1Cl | class 1
2. CCCCCCCCCCCC(=O)O | class 1
3. OCc1ccc(-c2ccc(-c3ccc(CO)s3)o2)s1 | class 1

Q: Please indicate whether the reported cell viability of `NC1(C(=O)N[C@@H](CCO)c2ccc(Cl)cc2)CCN(c2ncnc3[nH]ccc23)CC1` is strictly below 90%.
Ans: class 1

Q: Please indicate whether the reported cell viability of `CN1c2ccccc2C(=O)Nc2cnc(Nc3ccc(N4CCC(O)CC4)cc3)nc21` is strictly below 90%.
Ans: class 1

---

test system: MOLM14; experiment: cell viability relative to vehicle control; higher = less cytotoxic; conditions: 10 µM; SRSF2 genotype: SRSF2 P95H/wt
Structures can show the parent of a compound that is named as a salt.
property_name: cell viability
Give the figure together with its unit, number first.

Q: Dear colleague, please send me the reported cell viability for `N#Cc1c(O)c2c(-c3ccc(-c4ccccc4O)cc3)csc2[nH]c1=O` when you can.
Ans: 104%

Q: Dear colleague, please send me the reported cell viability for `CC(C)(C)c1cc(C(C)(C)C)c(NC(=O)c2c[nH]c3ccccc3c2=O)cc1O` when you can.
Ans: 85.7%

Q: Dear colleague, please send me the reported cell viability for `CCCN(CCC)C(=O)C1=Cc2ccc(-c3ccc(C(=O)N4CCCC4)cc3)cc2N=C(N)C1` when you can.
Ans: 26.5%

Q: Dear colleague, please send me the reported cell viability for NC(C=O)C(O)C(O)C(O)CO (stereo not drawn) [Glucosamine sulfate] when you can.
Ans: 104%

Q: Dear colleague, please send me the reported cell viability for `OC[C@H]1O[C@@](CO)(OC[C@@]2(O[C@H]3O[C@H](CO)[C@@H](O)[C@H](O)[C@H]3O)O[C@H](CO)[C@@H](O)[C@@H]2O)[C@@H](O)[C@@H]1O` when you can.
Ans: 99%

Q: Dear colleague, please send me the reported cell viability for CC1(N)CCN(c2cnc(-c3cccc(Cl)c3Cl)c(N)n2)CC1 [SHP099 hydrochloride] when you can.
Ans: 29.6%

Q: Dear colleague, please send me the reported cell viability for `Nc1nc(NCCNc2ncc(-n3ccnc3)c(-c3ccc(Cl)cc3Cl)n2)ccc1[N+](=O)[O-]` when you can.
Ans: 109%

Q: Dear colleague, please send me the reported cell viability for CC(=CCNc1ncnc2nc[nH]c12)CO [Trans-Zeatin] when you can.
Ans: 98.3%

Q: Dear colleague, please send me the reported cell viability for `O=C(Nc1ccccc1Br)N[C@@H]1CCN(c2ccc(C(F)(F)F)cn2)C1` when you can.
Ans: 98.5%

Q: Dear colleague, please send me the reported cell viability for C[C@@H](O[C@H]1OCCN(Cc2n[nH]c(=O)[nH]2)[C@H]1c1ccc(F)cc1)c1cc(C(F)(F)F)cc(C(F)(F)F)c1 [Aprepitant (MK-0869)] when you can.
Ans: 56.2%

Q: Dear colleague, please send me the reported cell viability for `O=C1CCc2ccc(OCCCCN3CCN(c4cccc(Cl)c4Cl)CC3)cc2N1` when you can.
Ans: 86.5%
